Here the recorded GI50 is given for each entry.
# Test system: OVCAR-4
# Experiment: NCI tumour cell line growth inhibition, 48 h
Calls of active or inactive are those of the source. No stated cut-off is given here; in the data, active = GI50 up to about 1.1 µM and inactive = higher.
Assay readout: GI50

O=c1c(NO)c([N+](=O)[O-])cnn1-c1ccccc1	3.81 µM (inactive)
Nc1ncn(C2C=C(CO)C(O)C2O)c(=O)n1 (centres undefined)	85.9 µM (inactive)
COC(=O)/C=C1/OC(c2ccc(Br)cc2)=C(Br)C1=O	5.16 µM (inactive)
COc1ccc2c3c1OC1C4(CCC5C(C2)N(CC2CC2)CCC351)OCCO4 (centres undefined)	> 100 µM (inactive)
Cc1ccc(S(=O)(=O)N/N=C/CN2C(=O)c3ccccc3C2=O)cc1	> 100 µM (inactive)
COc1ccc(-c2c(C#N)c(S)n(NS(=O)(=O)c3ccc(C)cc3)c(=O)c2C#N)cc1	23.7 µM (inactive)
Cn1c(=O)n(C2(C)CSC2)c2ccccc21	> 100 µM (inactive)
COc1ccc(C(=O)c2[nH]c(Nc3cc(C)ccn3)c(C(=S)Nc3ccccc3)c2N)cc1	10.9 µM (inactive)
Cc1cc(SCC(=O)c2ccc(Br)cc2)cc(C)[o+]1	24.9 µM (inactive)
CCOP(=O)(C=C=C1CCC2[C@@H]3CCc4cc(OC)ccc4C3CC[C@]12C)OCC (some centres undefined)	6.24 µM (inactive)
CSc1nc2c(N)ncnc2n1C	> 100 µM (inactive)
c1cc2nnc1SCCCSc1ccc(nn1)SCCCS2	16.1 µM (inactive)
CCOC(=N)CC(=O)Nc1ccccc1CC	> 100 µM (inactive)
O=c1oc2ccccc2cc1-c1csc(Nc2ccc(F)cc2)n1	7.31 µM (inactive)
Cc1cc(N)c(C)c2c1[nH]c1ccc(O)cc12	> 100 µM (inactive)
Cc1cc2c(cc1C)[n+]([O-])c(N1CCN(c3ccc([N+](=O)[O-])cc3)CC1)c(C#N)[n+]2[O-]	39.4 µM (inactive)
N#Cc1[nH]c(=S)[nH]c1N	> 100 µM (inactive)
CCOC(=O)c1cc2c([N+](=O)[O-])c(NC(C)=O)ccc2s1	68.4 µM (inactive)
CSC1=NC(C(N)=O)C(N)N1C (centres undefined)	> 100 µM (inactive)
O=C1C(=C(C(=O)c2ccccc2)C(=O)c2ccccc2)OC(c2ccccc2)=C1C(=O)c1ccccc1	2.79 µM (inactive)
C=CCN1C(=O)/C(=C/c2ccc(OC)cc2)NC1=S	54.5 µM (inactive)
COc1ccc(NC(=O)CC(=O)NNC(Sc2ccccc2)c2cc(/N=N/c3ccc(Br)cc3)ccc2O)cc1 (centres undefined)	9.12 µM (inactive)
O=C1c2ccccc2C(=O)N1CCCC(=O)n1cc(F)c(=O)[nH]c1=O	> 100 µM (inactive)
Cc1ccc(NC(=O)CC2C(=O)Nc3ccccc3S2(=O)=O)cc1C (centres undefined)	> 100 µM (inactive)
COc1cc(C[C@H]2c3cc(OC)c(OC)cc3CCN2C)c(Oc2cc3c(cc2OC)-c2c(OC)c(OC)cc4c2[C@H](C3)N(C)CC4)cc1OC	8.3 µM (inactive)
CC(C)CC(NC(=O)OCc1ccccc1)C(=O)NCCCCC(N)C(=O)NC(CCCCNC(=O)C(CC(C)C)NC(=O)OCc1ccccc1)C(=O)NC(CCCCNC(=O)C(CC(C)C)NC(=O)OCc1ccccc1)C(=O)NC(CCCCNC(=O)C(CC(C)C)NC(=O)OCc1ccccc1)C(=O)NC(CCCCNC(=O)C(CC(C)C)NC(=O)OCc1ccccc1)C(=O)NC(CCCCNC(=O)C(CC(C)C)NC(=O)OCc1ccccc1)C(=O)O (centres undefined)	> 100 µM (inactive)
COC1=C(Br)C(O)C2(C=C1Br)CC(C(=O)NCCCCNC(=O)C1=NOC3(C=C(Br)C(OC)=C(Br)C3O)C1)=NO2 (centres undefined)	54.3 µM (inactive)
CS(=O)(=O)c1ccc(-c2cc(-c3ccc(S(C)(=O)=O)cc3)[n+](-c3cc(-c4ccccc4)c([O-])c(-c4ccccc4)c3)c(-c3ccc(S(C)(=O)=O)cc3)c2)cc1	> 100 µM (inactive)
COc1cc(C2C(Cl)C(=O)N2NC(=O)c2ccc(N)cc2)ccc1O (centres undefined)	81.3 µM (inactive)
